Tested on: MDA-MB-231
Test: Cytotoxicity against human MDA-MB-231 cells assessed as reduction in cell viability after 24 to 48 hrs by MTS assay
Format: functional, cell-based
Attribute measured: pIC50
Kindly note that pIC50 refers to -log10 of the concentration in mol/L and answer with the value alone.

Param readout= pIC50; system= MDA-MB-231; entry= `C=CC(C)(C)c1cc(/C=C/C(=O)c2ccc(O)cc2)c(OC)cc1O` ; returns value.
4.66

---

Tested on: Ca-Ski
Assay: Cytotoxicity against human CaSki cells assessed as reduction in cell viability after 72 hrs
Assay type: functional, cell-based
Attribute measured: pIC50
Kindly note that pIC50 refers to -log10 of the concentration in mol/L and answer with the value alone.

Could you tell me which pIC50 is on file for `O=C(/C=C/c1ccc(O)cc1)c1ccc(O)cc1O` ?
4.41
